The compounds listed here are annotated with their IC50.
molecular target: Cathepsin B (Homo sapiens); assay: Inhibition of human cathepsin B using Z-Phe-Arg-AMC as substrate after 30 mins by spectromicrofluorimetric method
Your answer should be a plain number; it is taken to be in nM.

Some solved entries appear below for comparison.
smi | assayed_system | meas_value
N#Cc1nc(Nc2cccc([N+](=O)[O-])c2)nc(N2CCNCC2)n1 | Cathepsin B (Homo sapiens) | 34
Cc1cccc(CNc2nc(C#N)nc(N3CCNCC3)n2)c1 | Cathepsin B (Homo sapiens) | 57

Next item in the queue.
Query: I have this compound here, "N#Cc1nc(Nc2cccc([N+](=O)[O-])c2)nc(NC2CCCCC2)n1" , and I need its recorded IC50.
Response: 79
